Enzyme Activity Endpoint Assay: Fab′2 values, listed per item
molecular target: pooled human IgG
The reply should be a number in ng/µL, with the unit left off.

Answered examples (2):
{"protein": "PRT-35 (protein) MANQEIRYSEVTPYHVTSVWTKGVTPPANFTQGEDVFHAPYVANQGWYDITKTFNGKDDLLCGAATAGNMLHWWFDQNKDQIKRYLEEHPEKQKINFNGEQMFDVKEAIDTKDHQLDSKLFEYFKEKAFPYLSTKHLGVFPDHVIDMFINGYRLSLTNHGPTPVKEGSKDPRGGIFDAVFTRGDQSKLLTSRHDFKEKNLKEISDLIKKELTEGKALGLSHTYANVRINHVINLWGADFDSNGNLKAIYVTDSDSNASIGMKKYFVGVNSAGKVAISAKEIKEDNIGAQVLGLFTLSTGQDSWNQTN", "value": 37}
{"protein": "PRT-51 (protein) MANQEIRYSEVTPYHVTSVWTKGVTPPANFTQGEDVFHAPYVANQGWYDINKTFNGKDDLLCGAATAGNMLHWWFDQNKDYIDRYLKKHPEKAKINFNGEQMFDVKEAIDTKNDQLDSKLFEYFKEKAFPYLSTKHLGVFPDLVLDMFINGYRLSLTNHGPTPVKEGSKDPRGGFFDDVFTRGDQSKLLTSRHDFKEKNLEEISDLIKKELTEGKALGLSHTYANVRINHVINLWGADFDENGNLKAIYVTDSDSNASIGMKRYFVGVNSAGKVAISAKEIKEDNIGAQVLGLFTLSTGQDSWNQTN", "value": 0}

# lookup: Enzyme Activity Endpoint Assay: Fab′2 of PRT-22 (protein) MANQEIRYSEVTPYHVTSVWTKGVTPPANFTQGEDVFHAPYVANQGWYDITKTFNGKDDLLCGAATAGNMLHWWFDQNKDQIERYLKEHPEKQKINFNGEQMFDVKEAIDTKNSQLDSKLFEYFKEKAFPYLSTKHLGVFPDHVIDMFINGYRLSLTNHGPTPVKEGSKDPRGGIFDAVFTRGDQSKLLTSRHDFKEKNLKEISDLIKKELTEGKALGLSHTYANVRINHVINLWGADFDSNGNLKAIYVTDSDSNASIGMKKYFVGVNSAGKVAISAKEIKEDNIGAQVLGLFTLSTGQDIWNQTN
37

# lookup: Enzyme Activity Endpoint Assay: Fab′2 of PRT-536 (protein) MANQEIRYSGDSEWANKKVWVYGITPAEEGAWLYSTYYLPWKKEYGWYDCNKRNPTADGMMCWAASASNLMHWWIAQNKRYIDLYGDRYKGPDKINFNGEQMFDVKEYIDPLDKPQESDIFQCFIDKSFADLSTKHEAGKGDEGINWFIHGIIPSYPAHGPTPVKLRYPYNPAGYFKDVFPRGDGVVLGGNNGDFKELGKERFNETIKDALANKKGIGLSIGPVNVRKSHVETMWGAEFDENGDVSYIYMADNNDRWGVGCIRLQIVYVEGATYTCYKTEIIPSDRPIPINRLVTVELGEEYWKQTNLEHHHHHH
0

# lookup: Enzyme Activity Endpoint Assay: Fab′2 of PRT-278 (protein) MVTSVWTKGVTPPTDFIYGEDVLHAPYKAGQGWYDITKLFNGKDNLLCGAATAGNMLHWWFDQNKEQIENYLKKHPEKQKIIFNNQELFDLKAAIDTKDSQLDSKLFDYFKEKAFPYLSTKHLGVFPDHVIDMFINGYRLSLTNHGPTPVKRGSKDKRGGIFDAVFTRGVQSKLLTNRHDLKNKTLKEISDLIKQELTEGKALGISHTYANVRINHVINLWGADFDAEGNLEAIYVTDSDTNPSIGMKKYFVGVNSSGKVAISAKEIEEDNIGAQVLGLFTLSTGQDIWNQTN
547

# lookup: Enzyme Activity Endpoint Assay: Fab′2 of PRT-277 (protein) MVTSVWTKGVTPPTDFIYGEDVLHAPYKAGQGWYDITKLFNGKDNLLCGAATAGNMLHWWFDQNKEQIENYLKKHPEKQKIIFNNQELFDLKAAIDTKDSQLDSKLFEYFLEKAFPNLSTKHLGVFPDHVIDMFINGYRLSLLNHGPTPVKRGSKDKRGGIFDAVFTRGVQSKLLTNRHDLKNKTLKEISDLIKQELTEGKALGISHTYANGRINHVINLWGADFDAEGNLEAIAVTDSDTNASIGMKKYFVGVNSSGKVAISAKEIEEDNIGAQVLGLFTLSTGQDIWNQTN
19

# lookup: Enzyme Activity Endpoint Assay: Fab′2 of PRT-539 (protein) MANQEIRYSKNENPNVTIKWVHGIGEPTQAEKEKIEFYWYETNTTKFFNNRKVTHLGDSNQCWAKTASNMLHWWFEQNKENINKYIEKKNITGKINFNGEQMFDVKEGIDDNQEKEKSYIANTFRTKKAHNLSTKHKGDYIISGLAWYLYGLNNFKNAHGPTPVKKKPKFYGPALFKDVFNRGDGNTPIKEETDFKEYTKKEFEDILKEALDSKKAIGINIYGSNVGYGHAITLWGAAFDEDNNIIAIYVVDNNFKFENRIFPYGIWYEKEGRPYLFNYEINSFVKNRYVGEITTLDKGEAQWQETNLEHHHHHH
0

# lookup: Enzyme Activity Endpoint Assay: Fab′2 of PRT-548 (protein) MANQEIRYSEETPKTITSVWTKGVTPPTDFIKNEDVLHAPYIANQGWYDITKTFNGKDDLLCGAATAGNMLHWWFDQNKEEIENYLKKHPEKQKINFNGEQMFDVKEAIDTKDSQTDSALFEYFKDKAFPYLSTKHLGVFPDHVIDMFINGYRLSLTNHGPTPVKRGTKDPRGGIFDAVFTRGDQTKLLTARHDFKEKTLNEISDLIKQELTEGKALGLSHTYANVRINHVINLWGADFNSEGNLEAIYVTDSDSNASIGMKKYYVGVNAAGKVAISAKEIEGDNIGAQVLGLFTLSTGQDIWEQTNLEHHHHHH
727

FYI, the data here is from patent US20250027068.
